B1: Chromodomain-helicase-DNA-binding protein 4, residues 623 to 675; numbered along this chain, Q14839 (parent)
chain: MIHRILNHSVDKKGHVHYLIKWRDLPYDQASWESEDVEIQDYDLFKQSYWNHR

variants of: B1; assay: abundance fitness (aPCA) (normalised: wild type 0, dead -1); higher = more abundant; growth selection in yeast, the domain comes from the species named; conditions: Homo sapiens
Can you tell me abundance fitness for the items I'm about to list?
Numbers only.

Completed entries (count: 3):
D24C : -0.588
W22C : -0.793
V16C : -0.22

Lab note: each variant below needs its abundance fitness filled in.
1. Q29F
2. Y18C
3. Y27K
4. W32E

-0.657
-0.59
-0.013
-0.737

Lab note: each variant below needs its abundance fitness filled in.
1. Y27I
2. H15R

1. 0.21
2. 0.057

Lab note: each variant below needs its abundance fitness filled in.
1. P26W
2. H17R
3. D24M

1: -0.662; 2: -0.174; 3: -0.552

Lab note: each variant below needs its abundance fitness filled in.
1. S31R
2. Y18F
3. W22G

[-0.656, -0.43, -0.88]

Lab note: each variant below needs its abundance fitness filled in.
1. W32Y
2. K13L
3. R23F
4. G14N

-0.909
-0.36
-0.349
-0.451

Lab note: each variant below needs its abundance fitness filled in.
1. K21C
2. A30T
3. Y18S
4. W32P
5. R23T
6. D28G

[-0.424, -0.653, -0.681, -0.755, -0.189, -0.179]

Lab note: each variant below needs its abundance fitness filled in.
1. I20G
2. K13Q
3. K13Y
4. S31A

-0.791
-0.133
-0.214
-0.817

Lab note: each variant below needs its abundance fitness filled in.
1. A30H
2. I20S

-0.645
-0.778
